- ASSAY EXPLANATION: Nephrotoxicity assay: in vitro cytotoxicity of HK-2 cells by CCK-8 assay
- Format: cell-based
- MEASUREMENT SETUP: human, HK-2 cells (human renal), 72 h incubation with drug-containing medium
Bridge positions count the residues as written; N and C are the ends. Square brackets hold non-standard residues; d marks the D form. Peptide text beside a SMILES is read from it. * marks the point of attachment. Nonanoyl = CCCCCCCCC(=O)*; Octanoyl = CCCCCCCC(=O)*; Dab = NCC[C@H](N)C(=O)O; Dap = NC[C@H](N)C(=O)O

COMPOUND	IC50 at 72 h, µg/mL
CCCCCCCCC(=O)N[C@@H](CCN)C(=O)N[C@H](C(=O)N[C@@H](CCN)C(=O)N[C@H]1CCNC(=O)[C@H]([C@@H](C)O)NC(=O)[C@H](CCN)NC(=O)[C@H](CCN)NC(=O)[C@H]([C@@H](C)O)NC(=O)[C@@H](Cc2ccccc2)NC(=O)[C@H](CCN)NC1=O)[C@@H](C)O [Compound 20] (Nonanoyl-[Dab]T[Dab][Dab][Dab][dF]T[Dab][Dab]T; lactam 4-C)	280
CCCCCCCC(=O)N[C@@H](CCN)C(=O)N[C@H](C(=O)N[C@@H](CN)C(=O)N[C@H]1CCNC(=O)[C@H]([C@@H](C)O)NC(=O)[C@H](CCN)NC(=O)[C@H](CCN)NC(=O)[C@H](CC(C)C)NC(=O)[C@@H](Cc2ccccc2)NC(=O)[C@H](CCN)NC1=O)[C@@H](C)O [Compound 38] (Octanoyl-[Dab]T[Dap][Dab][Dab][dF]L[Dab][Dab]T; lactam 4-C)	219

====

Form field: MIC (one value per entry).
- Tested on: Escherichia coli ATCC BAA-2523
- Assay type: cell-based
- MEASUREMENT SETUP: ATCC BAA-2523
Bridge positions count the residues as written; N and C are the ends. Square brackets hold non-standard residues; d marks the D form. Peptide text beside a SMILES is read from it. * marks the point of attachment. Dab(CH2SO3H) = N[C@@H](CCNCS(=O)(=O)O)C(=O)O; Heptanoyl(6-Me) = CC(C)CCCCC(=O)*; dOrn = NCCC[C@@H](N)C(=O)O; X1 = CC[C@H](C)CCCCC(=O)*; Octanoyl = CCCCCCCC(=O)*; Dab = NCC[C@H](N)C(=O)O; Dap = NC[C@H](N)C(=O)O
READOUT KIND: MIC

COMPOUND	TEST SYSTEM	READOUT KIND	MEASURED VALUE
CC[C@H](C)CCCCC(=O)N[C@@H](CCN)C(=O)N[C@H](C(=O)N[C@H](CO)C(=O)N[C@H]1CCNC(=O)[C@H]([C@@H](C)O)NC(=O)[C@H](CN)NC(=O)[C@H](CCN)NC(=O)[C@H]([C@@H](C)O)NC(=O)[C@@H](Cc2ccccc2)NC(=O)[C@H](CCN)NC1=O)[C@@H](C)O [Compound 81] (X1-[Dab]T[dS][Dab][Dab][dF]T[Dab][Dap]T; lactam 4-C)	Escherichia coli ATCC BAA-2523	MIC	0.03 µg/mL
CC[C@H](C)CCCCC(=O)N[C@@H](CCN)C(=O)N[C@H](C(=O)N[C@H](CCCN)C(=O)N[C@H]1CCNC(=O)[C@H]([C@@H](C)O)NC(=O)[C@H](CCN)NC(=O)[C@H](CCN)NC(=O)[C@H](CC(C)C)NC(=O)[C@@H](Cc2ccccc2)NC(=O)[C@H](CCN)NC1=O)[C@@H](C)O [Compound 41] (X1-[Dab]T[dOrn][Dab][Dab][dF]L[Dab][Dab]T; lactam 4-C)	Escherichia coli ATCC BAA-2523	MIC	0.03 µg/mL
CC(C)CCCCC(=O)N[C@@H](CCN)C(=O)N[C@H](C(=O)N[C@H](CO)C(=O)N[C@H]1CCNC(=O)[C@H]([C@@H](C)O)NC(=O)[C@H](CCNCS(=O)(=O)O)NC(=O)[C@H](CCN)NC(=O)[C@H]([C@@H](C)O)NC(=O)[C@@H](Cc2ccccc2)NC(=O)[C@H](CCN)NC1=O)[C@@H](C)O [Compound 111] ({Heptanoyl(6-Me)}-[Dab]T[dS][Dab][Dab][dF]T[Dab][Dab(CH2SO3H)]T; lactam 4-C)	Escherichia coli ATCC BAA-2523	MIC	0.06 µg/mL
CC(C)CCCCC(=O)N[C@@H](CCN)C(=O)N[C@H](C(=O)N[C@H](CO)C(=O)N[C@H]1CCNC(=O)[C@H]([C@@H](C)O)NC(=O)[C@H](CCN)NC(=O)[C@H](CCNCS(=O)(=O)O)NC(=O)[C@H]([C@@H](C)O)NC(=O)[C@@H](Cc2ccccc2)NC(=O)[C@H](CCN)NC1=O)[C@@H](C)O [Compound 110] ({Heptanoyl(6-Me)}-[Dab]T[dS][Dab][Dab][dF]T[Dab(CH2SO3H)][Dab]T; lactam 4-C)	Escherichia coli ATCC BAA-2523	MIC	0.06 µg/mL
CCCCCCCC(=O)N[C@@H](CCN)C(=O)N[C@H](C(=O)N[C@H](CO)C(=O)N[C@H]1CCNC(=O)[C@H]([C@@H](C)O)NC(=O)[C@H](CCN)NC(=O)[C@H](CCN)NC(=O)[C@H]([C@@H](C)O)NC(=O)[C@@H](Cc2ccccc2)NC(=O)[C@H](CN)NC1=O)[C@@H](C)O [Compound 63] (Octanoyl-[Dab]T[dS][Dab][Dap][dF]T[Dab][Dab]T; lactam 4-C)	Escherichia coli ATCC BAA-2523	MIC	0.125 µg/mL

====

// values below are reported MIC
- System: Pseudomonas aeruginosa ATCC 27853
- Type: cell-based
- MEASUREMENT SETUP: ATCC 27853
Bridge positions count the residues as written; N and C are the ends. Square brackets hold non-standard residues; d marks the D form. Peptide text beside a SMILES is read from it. * marks the point of attachment. Heptanoyl(6-Me) = CC(C)CCCCC(=O)*; X1 = CC[C@H](C)CCCCC(=O)*; Heptanoyl = CCCCCCC(=O)*; Orn = NCCC[C@H](N)C(=O)O; dDap = NC[C@@H](N)C(=O)O; Dab = NCC[C@H](N)C(=O)O

MOLECULE	MIC
CCCCCCC(=O)N[C@@H](CCN)C(=O)N[C@H](C(=O)N[C@H](CO)C(=O)N[C@H]1CCNC(=O)[C@H]([C@@H](C)O)NC(=O)[C@H](CCCN)NC(=O)[C@H](CCN)NC(=O)[C@H]([C@@H](C)O)NC(=O)[C@@H](Cc2ccccc2)NC(=O)[C@H](CCN)NC1=O)[C@@H](C)O [Compound 89] (Heptanoyl-[Dab]T[dS][Dab][Dab][dF]T[Dab][Orn]T; lactam 4-C)	>64 µg/mL
CC[C@H](C)CCCCC(=O)N[C@@H](CCN)C(=O)N[C@H](C(=O)N[C@H](CN)C(=O)N[C@H]1CCNC(=O)[C@H]([C@@H](C)O)NC(=O)[C@H](CCN)NC(=O)[C@H](CCN)NC(=O)[C@H]([C@@H](C)O)NC(=O)[C@@H](Cc2ccccc2)NC(=O)[C@H](CCN)NC1=O)[C@@H](C)O [Compound 1] (X1-[Dab]T[dDap][Dab][Dab][dF]T[Dab][Dab]T; lactam 4-C)	0.03 µg/mL
CC(C)CCCCC(=O)N[C@@H](CCN)C(=O)N[C@H](C(=O)N[C@@H](CCCN)C(=O)N[C@H]1CCNC(=O)[C@H]([C@@H](C)O)NC(=O)[C@H](CCN)NC(=O)[C@H](CCN)NC(=O)[C@H](CC(C)C)NC(=O)[C@@H](Cc2ccccc2)NC(=O)[C@H](CCN)NC1=O)[C@@H](C)O [Compound 47] ({Heptanoyl(6-Me)}-[Dab]T[Orn][Dab][Dab][dF]L[Dab][Dab]T; lactam 4-C)	≤0.03 µg/mL

====

- System: Escherichia coli ATCC BAA-2523
- Type: cell-based
- MEASUREMENT SETUP: ATCC BAA-2523
Bridge positions count the residues as written; N and C are the ends. Square brackets hold non-standard residues; d marks the D form. Peptide text beside a SMILES is read from it. * marks the point of attachment. Dab(CH2SO3H) = N[C@@H](CCNCS(=O)(=O)O)C(=O)O; Heptanoyl(6-Me) = CC(C)CCCCC(=O)*; dOrn = NCCC[C@@H](N)C(=O)O; Nonanoyl = CCCCCCCCC(=O)*; Heptanoyl = CCCCCCC(=O)*; Octanoyl = CCCCCCCC(=O)*; dDap = NC[C@@H](N)C(=O)O; Dab = NCC[C@H](N)C(=O)O; Dap = NC[C@H](N)C(=O)O
Consider the following compounds and their measured MIC readings.
READOUT KIND: MIC (µg/mL)

COMPOUND	READOUT KIND	SCALE UNIT	REL	MEASURED VALUE
CCCCCCCC(=O)N[C@@H](CCN)C(=O)N[C@H](C(=O)N[C@H](CCCN)C(=O)N[C@H]1CCNC(=O)[C@H]([C@@H](C)O)NC(=O)[C@H](CCN)NC(=O)[C@H](CCN)NC(=O)[C@H]([C@@H](C)O)NC(=O)[C@@H](Cc2ccccc2)NC(=O)[C@H](CCN)NC1=O)[C@@H](C)O [Compound 23] (Octanoyl-[Dab]T[dOrn][Dab][Dab][dF]T[Dab][Dab]T; lactam 4-C)	MIC	µg/mL	≤	0.03
CCCCCCC(=O)N[C@@H](CCN)C(=O)N[C@H](C(=O)N[C@@H](CN)C(=O)N[C@H]1CCNC(=O)[C@H]([C@@H](C)O)NC(=O)[C@H](CCN)NC(=O)[C@H](CCN)NC(=O)[C@H]([C@@H](C)O)NC(=O)[C@@H](Cc2ccccc2)NC(=O)[C@H](CCN)NC1=O)[C@@H](C)O [Compound 9] (Heptanoyl-[Dab]T[Dap][Dab][Dab][dF]T[Dab][Dab]T; lactam 4-C)	MIC	µg/mL	=	0.03
CCCCCCCCC(=O)N[C@@H](CCN)C(=O)N[C@H](C(=O)N[C@@H](CCN)C(=O)N[C@H]1CCNC(=O)[C@H]([C@@H](C)O)NC(=O)[C@H](CCN)NC(=O)[C@H](CCN)NC(=O)[C@H]([C@@H](C)O)NC(=O)[C@@H](Cc2ccccc2)NC(=O)[C@H](CCN)NC1=O)[C@@H](C)O [Compound 20] (Nonanoyl-[Dab]T[Dab][Dab][Dab][dF]T[Dab][Dab]T; lactam 4-C)	MIC	µg/mL	=	0.06
CC(C)CCCCC(=O)N[C@@H](CCN)C(=O)N[C@H](C(=O)N[C@@H](CN)C(=O)N[C@H]1CCNC(=O)[C@H]([C@@H](C)O)NC(=O)[C@H](CCN)NC(=O)[C@H](CCNCS(=O)(=O)O)NC(=O)[C@H]([C@@H](C)O)NC(=O)[C@@H](Cc2ccccc2)NC(=O)[C@H](CCN)NC1=O)[C@@H](C)O [Compound 119] ({Heptanoyl(6-Me)}-[Dab]T[Dap][Dab][Dab][dF]T[Dab(CH2SO3H)][Dab]T; lactam 4-C)	MIC	µg/mL	=	0.06
CCCCCCC(=O)N[C@@H](CCN)C(=O)N[C@H](C(=O)N[C@H](CN)C(=O)N[C@H]1CCNC(=O)[C@H]([C@@H](C)O)NC(=O)[C@H](CCN)NC(=O)[C@H](CCN)NC(=O)[C@H]([C@@H](C)O)NC(=O)[C@@H](Cc2ccccc2)NC(=O)[C@H](CCN)NC1=O)[C@@H](C)O [Compound 4] (Heptanoyl-[Dab]T[dDap][Dab][Dab][dF]T[Dab][Dab]T; lactam 4-C)	MIC	µg/mL	=	0.03
